Every entry's value here was drawn from patent US20190185479A1.

hPDE2A (Homo sapiens, UniProt O00408) Ki data
Sequence (O00408 whole entry): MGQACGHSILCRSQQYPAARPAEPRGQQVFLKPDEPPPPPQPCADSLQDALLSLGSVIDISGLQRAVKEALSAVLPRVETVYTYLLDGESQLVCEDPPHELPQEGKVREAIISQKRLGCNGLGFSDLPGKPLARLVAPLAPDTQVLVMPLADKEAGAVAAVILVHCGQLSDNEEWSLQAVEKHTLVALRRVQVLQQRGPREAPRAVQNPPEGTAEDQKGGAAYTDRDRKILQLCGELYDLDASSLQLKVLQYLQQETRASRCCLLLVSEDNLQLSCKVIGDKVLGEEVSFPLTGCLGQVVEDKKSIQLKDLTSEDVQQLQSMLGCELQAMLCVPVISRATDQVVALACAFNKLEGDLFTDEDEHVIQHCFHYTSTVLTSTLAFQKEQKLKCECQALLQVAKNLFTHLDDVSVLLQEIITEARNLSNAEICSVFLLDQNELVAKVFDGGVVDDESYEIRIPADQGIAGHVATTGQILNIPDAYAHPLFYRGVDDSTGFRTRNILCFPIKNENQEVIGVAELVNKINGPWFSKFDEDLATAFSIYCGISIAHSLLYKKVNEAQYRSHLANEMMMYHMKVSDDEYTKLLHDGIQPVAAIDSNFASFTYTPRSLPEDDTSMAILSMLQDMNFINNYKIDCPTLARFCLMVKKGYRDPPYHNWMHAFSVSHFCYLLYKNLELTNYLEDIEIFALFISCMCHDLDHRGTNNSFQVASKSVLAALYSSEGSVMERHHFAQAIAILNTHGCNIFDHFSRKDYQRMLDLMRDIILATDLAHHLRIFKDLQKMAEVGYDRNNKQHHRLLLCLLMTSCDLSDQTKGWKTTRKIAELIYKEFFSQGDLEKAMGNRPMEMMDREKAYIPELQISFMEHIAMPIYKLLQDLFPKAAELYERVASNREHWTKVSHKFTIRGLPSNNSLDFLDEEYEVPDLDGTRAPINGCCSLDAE

[[record]]
compound = "Nc1nccn2c(C3CCCCC3)nnc12 [Example 141]"
result = "> 5.1 µM"


Attention now turns to another entry.
I am curious: what Ki value has been reported for Nc1ncnc2c1nnn2C1CCCCC1 [Example 3] ?
27 µM

###

target: Human PDE7B (hPDE7B) (Homo sapiens, UniProt Q9NP56)
Sequence (Q9NP56 whole entry): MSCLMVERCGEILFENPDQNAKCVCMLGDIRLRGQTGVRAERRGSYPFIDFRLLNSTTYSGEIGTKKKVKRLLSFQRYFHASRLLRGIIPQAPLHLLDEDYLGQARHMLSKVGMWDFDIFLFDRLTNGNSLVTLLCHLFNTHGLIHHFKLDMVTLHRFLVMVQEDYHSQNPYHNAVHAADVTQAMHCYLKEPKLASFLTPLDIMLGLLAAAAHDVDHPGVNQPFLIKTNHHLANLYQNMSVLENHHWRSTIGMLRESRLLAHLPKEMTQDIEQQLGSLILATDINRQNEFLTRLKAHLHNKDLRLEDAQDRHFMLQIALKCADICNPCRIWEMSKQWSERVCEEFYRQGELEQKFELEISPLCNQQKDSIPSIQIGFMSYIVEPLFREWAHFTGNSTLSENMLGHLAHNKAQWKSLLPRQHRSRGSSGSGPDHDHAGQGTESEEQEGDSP
Listing: log10 of IC50 of selected compounds
Use the decimal logarithm of IC50 (nM).

[[record]]
compound = "Nc1nccn2c(C3CCCCN3c3ncccn3)nnc12 (racemic)"
numeric_readout = 2.26


For the record Nc1ncnc2c1nnn2C1CCCC(C(F)F)C1 (stereo not drawn) [Example 119] , what value of log10 of IC50 is listed for Human PDE7B (hPDE7B) (Homo sapiens, UniProt Q9NP56)?
1.30

Field entry: CC1(C)CCCC(c2nnc3c(N)ncnn23)C1 (single isomer, unassigned) [Example 243]
2.08

Field entry: `Cn1nc(C2CCCCC2)c2ncnc(N)c21`
2.76

Field entry: CC1(C)CCCC(c2nnc3c(N)nccn23)C1 (racemic) [Example 144]
1.00

Field entry: `Nc1ncnc2c1ncn2C1CCCCC1`
2.61
